Hi there, I'd appreciate the recorded TGI for every entry that follows.
system: NCI-H23 lung; experiment: NCI tumour cell line growth inhibition, 48 h
Provide the reading as a plain figure in µM.

May I ask what TGI has been recorded for `N#C[S-].[La+3].c1cnc2c(c1)ccc1cccnc12.c1cnc2c(c1)ccc1cccnc12.c1cnc2c(c1)ccc1cccnc12` ? 22.2

Look up TGI for this compound: `COC(=O)c1ccc2[nH]c(O)c(C(=Nc3ccc(N(C)C(=O)CN4CCN(C)CC4)cc3)c3ccc4c(c3)OCO4)c2c1` 2.85

Consider the compound shown here: `CN(c1ccc(NC(=O)Nc2c(Cl)cccc2Cl)cc1)c1ccnc(Nc2cccc(CS(C)(=O)=O)c2)n1` What is its recorded TGI? 18.5
